The reported numbers originate from patent US20250152746A1.

Below, each entry is listed alongside its reported Cyno Primary Hepatocyte Editing % 2500.
- Tested on: PCSK9 gene
- Assay remarks: PCSK9 gRNA/SpCas9 editing in primary cynomolgus hepatocytes (Tables 2, 22)
- Assay type: cell-based, cynomolgus monkey
- Experimental context: 2500 ng/RNA/mL; SpCas9 mRNA MS002 1:1 by weight
In the oligonucleotide strings, read from the 5' end, every base follows the letter of its sugar. An asterisk marks phosphorothioate; unmarked linkages are phosphodiester. Other units and linkages are bracketed, terminal groups are in braces. A string of capitals states the bases alone. m = 2'-O-methyl; r = 2'-OH (RNA)
Field: numeric (%). Do not append units.

Reference set, count: 3
Molecule	Cyno Primary Hepatocyte Editing % 2500 [%]
GA177: PCSK9 gRNA; protospacer GGTCGCCACTCATCTTCACC (SEQ ID NO: 171) (nucleic acid, sugars from the 5' end m3 r94 m3, linkages s3 o93 s3 (s phosphorothioate, o phosphodiester), T or U not given here) guide: GGUCGCCACUCAUCUUCACCGUUUUAGAGCUAGAAAUAGCAAGUUAAAAUAAGGCUAGUCCGUUAUCAACUUGAAAAAGUGGCACCGAGUCGGUGCUUUU	15.91
GA234: PCSK9 gRNA; protospacer CGCCTGCCAGCGCCTGGCGA (SEQ ID NO: 252) (nucleic acid) guide: mC*mG*mC*rCrUrGrCrCrArGrCrGrCrCrUrGrGrCrGrArGrUrUrUrUrArGrArGrCrUrArGrArArArUrArGrCrArArGrUrUrArArArArUrArArGrGrCrUrArGrUrCrCrGrUrUrArUrCrArArCrUrUrGrArArArArArGrUrGrGrCrArCrCrGrArGrUrCrGrGrUrGrCrU*mU*mU*mU	6.44
GA183: PCSK9 gRNA; protospacer CTACGTGGTGGTGCTGAAGG (SEQ ID NO: 177) (nucleic acid) guide: mC*mU*mA*rCrGrUrGrGrUrGrGrUrGrCrUrGrArArGrGrGrUrUrUrUrArGrArGrCrUrArGrArArArUrArGrCrArArGrUrUrArArArArUrArArGrGrCrUrArGrUrCrCrGrUrUrArUrCrArArCrUrUrGrArArArArArGrUrGrGrCrArCrCrGrArGrUrCrGrGrUrGrCrU*mU*mU*mU	39.56

The molecule GA216: PCSK9 gRNA; protospacer CCGGGATGCCGGCGTGGCCA (SEQ ID NO: 210) (nucleic acid, sugars from the 5' end m3 r94 m3, linkages s3 o93 s3 (s phosphorothioate, o phosphodiester), T or U not given here) guide: CCGGGAUGCCGGCGUGGCCAGUUUUAGAGCUAGAAAUAGCAAGUUAAAAUAAGGCUAGUCCGUUAUCAACUUGAAAAAGUGGCACCGAGUCGGUGCUUUU showed Cyno Primary Hepatocyte Editing % 2500 equal to 37.79

The molecule GA214: PCSK9 gRNA; protospacer CCTTGGCCACGCCGGCATCC (SEQ ID NO: 208) (nucleic acid, sugars from the 5' end m3 r94 m3, linkages s3 o93 s3 (s phosphorothioate, o phosphodiester), T or U not given here) guide: CCUUGGCCACGCCGGCAUCCGUUUUAGAGCUAGAAAUAGCAAGUUAAAAUAAGGCUAGUCCGUUAUCAACUUGAAAAAGUGGCACCGAGUCGGUGCUUUU showed Cyno Primary Hepatocyte Editing % 2500 equal to 50.35

The molecule GA193: PCSK9 gRNA; protospacer GGGGCTGGTATTCATCCGCC (SEQ ID NO: 187) (nucleic acid, sugars from the 5' end m3 r94 m3, linkages s3 o93 s3 (s phosphorothioate, o phosphodiester), T or U not given here) guide: GGGGCUGGUAUUCAUCCGCCGUUUUAGAGCUAGAAAUAGCAAGUUAAAAUAAGGCUAGUCCGUUAUCAACUUGAAAAAGUGGCACCGAGUCGGUGCUUUU showed Cyno Primary Hepatocyte Editing % 2500 equal to 52.89
